assay-target: P2X7 receptor (Homo sapiens, UniProt Q99572)
Construct: host or cells: THP-1 cells differentiated with LPS and IFN-γ
Sequence (Q99572 whole entry): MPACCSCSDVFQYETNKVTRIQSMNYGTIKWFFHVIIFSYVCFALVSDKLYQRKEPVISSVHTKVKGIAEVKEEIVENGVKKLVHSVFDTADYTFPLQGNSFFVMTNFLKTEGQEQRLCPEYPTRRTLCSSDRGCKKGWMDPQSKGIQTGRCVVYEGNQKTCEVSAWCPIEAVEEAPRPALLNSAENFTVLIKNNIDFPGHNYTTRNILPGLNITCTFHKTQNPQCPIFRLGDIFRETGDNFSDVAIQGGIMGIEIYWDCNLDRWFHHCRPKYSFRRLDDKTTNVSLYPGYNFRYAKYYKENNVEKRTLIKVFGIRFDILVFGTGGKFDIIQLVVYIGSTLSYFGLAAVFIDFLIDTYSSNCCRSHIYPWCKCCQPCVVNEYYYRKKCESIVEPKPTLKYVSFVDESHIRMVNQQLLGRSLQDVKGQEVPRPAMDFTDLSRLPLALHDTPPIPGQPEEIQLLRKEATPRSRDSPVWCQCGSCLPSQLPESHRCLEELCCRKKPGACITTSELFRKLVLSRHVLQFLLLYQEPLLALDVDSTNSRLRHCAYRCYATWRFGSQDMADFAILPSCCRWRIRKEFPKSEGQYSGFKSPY
method: Alternate method for IL-1β release assay (differentiated THP-1 cells, BzATP-stimulated, ELISA)
Type: cell-based
stated-conditions: P2X7; 0.3 μM compound (asterisk symbols); read-out: IL-1β % inhib @ 0.3 μM
Method: Alternate Method for IL-1β Release Assay THP-1 cells (ATCC Cat #285-IF-100) are plated in 96 well plates at a concentration of 200,000 cells per well and allowed to differentiate in RPMI-1640 media (ATCC Cat #30-2001) containing 10% FBS, 100 IU/mL penicillin, 100 ug/mL streptomycin, 100 ng/mL LPS and 100 ng/mL IFN-γ for 16 hours. […]
endpoint-label: inhibition at 0.3 µM

- compound: "O=C(Cc1ccc(F)cc1)N1CCc2c(ncnc2NCC23CC4CC(CC(C4)C2)C3)C1 [Compound 96]"
  reported-result: "50 to 75%"
- compound: "O=S(=O)(c1cccc(OC(F)(F)F)c1)N1CCc2c(ncnc2NCC23CC4CC(CC(C4)C2)C3)C1 [Compound 20]"
  reported-result: "25 to 50%"

Measured inhibition at 0.3 µM, O=c1ccc2cc(S(=O)(=O)N3CCc4c(ncnc4NCC45CC6CC(CC(C6)C4)C5)C3)ccc2o1 [Compound 28] : 25 to 50%
